Can you tell me Kp at 2 h for the items I'm about to list?
# Assay Protocol: Blood-brain barrier permeability test, oral, SD rats
# Type: in vivo
# Applied Conditions: rat, brain/plasma, oral 10 mg/kg single dose, time point 2 h, read-out: Brain tissue/plasma
# Description: Test Example 6: Blood-Brain Barrier Permeability Test Each test compound was administered orally at a single dose of 10 mg/kg to SD rats for pharmacokinetic study. Each group included 9 rats. […] 100 μL of the supernatant was taken and analyzed by LC-MS/MS. […] 50 μL of the supernatant was taken and analyzed by LC-MS/MS.
Reply with just the number.

Can you share its Kp at 2 h? I mean this compound: Cc1cc(Nc2ncnc3ccc(NC4=NC(C)(C)CO4)cc23)ccc1Oc1ccn2ncnc2c1 [Tucatinib, reference compound]
0.015

Try this compound next: Nc1nccn2c(C34CCC(CO)(CC3)OC4)nc(-c3ccc(C(F)(F)c4ccccc4)cc3)c12 [Example 125]
1.03

Try this compound next: Nc1nccn2c(C34CCC(CO)(CC3)OC4)nc(-c3ccc(C(F)(F)c4cccc(Cl)c4F)cc3)c12 [Example 152]
0.39

Try this compound next: Nc1nccn2c(C3CCC(CO)OC3)nc(-c3ccc(C(F)(F)c4ccccc4)cc3)c12 (single isomer, unassigned) [Example 111-P1]
0.67

Try this compound next: CC#CC(=O)N1CC[C@@H](n2c(=O)n(-c3ccc(Oc4ccccc4)cc3)c3c(N)ncnc32)C1 [Tirabrutinib, reference compound]
0.06

Try this compound next: Nc1nccn2c(C34CCC(CO)(CC3)OC4)nc(-c3ccc(C(F)(F)c4ccccc4Cl)cc3)c12 [Example 155]
1.3

---

# Assay Protocol: Liver microsome metabolic stability test (human)
# Assay type: in vitro ADME
# Applied Conditions: liver microsomes, 0.5 mg/mL protein, read-out: T1/2 (min) Human
Measured Property: half-life (min)
I only need the number, in min, no unit after it.

Can you share its half-life? I mean this compound: `Nc1nccn2c(C34CCC(CO)(CC3)OC4)nc(-c3ccc(C(F)(F)c4ccccc4F)cc3)c12`
61.2

---

# Assay Protocol: Liver microsome metabolic stability test (rat)
# Assay type: in vitro ADME
# Applied Conditions: liver microsomes, 0.5 mg/mL protein, read-out: T1/2 (min) Rat
Measured Property: half-life (min)
I only need the number, in min, no unit after it.

Can you share its half-life? I mean this compound: Nc1nccn2c(C34CCC(CO)(CC3)OC4)nc(-c3ccc(C(F)(F)c4ccccc4F)cc3)c12 [Example 145]
60.8

---

Can you tell me concentration at 1 h for the items I'm about to list?
# Assay Protocol: Blood-brain barrier permeability test, oral, SD rats
# Assay type: in vivo
# Applied Conditions: rat, plasma, oral 10 mg/kg single dose, time point 1 h, read-out: Plasma drug concentration
I only need the number, in ng/mL, no unit after it.

Can you share its concentration at 1 h? I mean this compound: `Nc1nccn2c(C34CCC(CO)(CC3)OC4)nc(-c3ccc(C(F)(F)c4cccc(F)c4Cl)cc3)c12`
380

Try this compound next: Nc1nccn2c(C3CCC(CO)OC3)nc(-c3ccc(C(F)(F)c4ccccc4)cc3)c12 (single isomer, unassigned) [Example 111-P1]
2010

Try this compound next: `Nc1nccn2c(C34CCC(CO)(CC3)OC4)nc(-c3ccc(C(F)(F)c4ccccc4)cc3)c12`
1470

Try this compound next: Cc1cc(Nc2ncnc3ccc(NC4=NC(C)(C)CO4)cc23)ccc1Oc1ccn2ncnc2c1 [Tucatinib, reference compound]
2030

Try this compound next: `Nc1nccn2c(C34CCC(CO)(CC3)OC4)nc(-c3ccc(C(F)(F)c4ccccc4Cl)cc3)c12`
1250

Try this compound next: `Nc1nccn2c(C34CCC(CO)(CC3)OC4)nc(-c3ccc(C(F)(F)c4ccccc4F)cc3)c12`
1650

Try this compound next: `Nc1nccn2c(C34CCC(CO)(CC3)OC4)nc(-c3ccc(C(F)(F)c4cccc(Cl)c4F)cc3)c12`
1060

Try this compound next: CC#CC(=O)N1CC[C@@H](n2c(=O)n(-c3ccc(Oc4ccccc4)cc3)c3c(N)ncnc32)C1 [Tirabrutinib, reference compound]
713

---

# Assay Protocol: Blood-brain barrier permeability test, oral, SD rats
# Assay type: in vivo
# Applied Conditions: rat, plasma, oral 10 mg/kg single dose, time point 2 h, read-out: Plasma drug concentration
Measured Property: concentration at 2 h (ng/mL)
I only need the number, in ng/mL, no unit after it.

Can you share its concentration at 2 h? I mean this molecule: `Nc1nccn2c(C34CCC(CO)(CC3)OC4)nc(-c3ccc(C(F)(F)c4cccc(Cl)c4F)cc3)c12`
961

Try this molecule next: Cc1cc(Nc2ncnc3ccc(NC4=NC(C)(C)CO4)cc23)ccc1Oc1ccn2ncnc2c1 [Tucatinib, reference compound]
1940

Try this molecule next: CC#CC(=O)N1CC[C@@H](n2c(=O)n(-c3ccc(Oc4ccccc4)cc3)c3c(N)ncnc32)C1 [Tirabrutinib, reference compound]
515

Try this molecule next: `Nc1nccn2c(C34CCC(CO)(CC3)OC4)nc(-c3ccc(C(F)(F)c4ccccc4)cc3)c12`
1130

Try this molecule next: Nc1nccn2c(C3CCC(CO)OC3)nc(-c3ccc(C(F)(F)c4ccccc4)cc3)c12 (single isomer, unassigned) [Example 111-P1]
1580

Try this molecule next: `Nc1nccn2c(C34CCC(CO)(CC3)OC4)nc(-c3ccc(C(F)(F)c4ccccc4Cl)cc3)c12`
1430

---

Can you tell me IC50 for the items I'm about to list?
# Test system: TMD8 cell proliferation
# Assay Protocol: In vitro cell proliferation inhibitory activity test (CTG), TMD8
# Assay type: cell-based
# Applied Conditions: Homo sapiens, TMD8, 72 h, TMD8 cells
Write the quantity with the unit trailing the number.

Can you share its IC50? I mean this compound: Nc1nccn2c(C34CCC(CO)(CC3)OC4)nc(-c3ccc(C(F)(F)c4ccccc4)cc3)c12 [Example 125]
92.4 nM

Try this compound next: O=C(c1ccc(Oc2ccccc2)cc1Cl)c1c[nH]c2ncnc(N[C@@H]3CC[C@@H](CO)OC3)c12 [ARQ-531, reference compound]
74.6 nM

Try this compound next: N#Cc1ccnc(NC(=O)c2ccc(-c3nc(C4CCC(CO)OC4)n4ccnc(N)c34)cc2)c1 (centres unmarked) [Example 103]
25.1 nM

Try this compound next: Nc1nccn2c(C3CCC(CO)OC3)nc(-c3ccc(Cc4ccccc4)cc3)c12 (centres unmarked) [Example 106]
49.5 nM

Try this compound next: COc1cccc(Oc2ccc(-c3nc(C45CCC(CO)(CC4)OC5)n4ccnc(N)c34)c(F)c2)c1C#N [Example 115]
6.1 nM

Try this compound next: CC#CC(=O)N1CC[C@@H](n2c(=O)n(-c3ccc(Oc4ccccc4)cc3)c3c(N)ncnc32)C1 [Tirabrutinib, reference compound]
158 nM

Try this compound next: COc1ccc(F)cc1C(=O)NCc1ccc(-c2nn([C@@H](C)C(F)(F)F)c(N)c2C(N)=O)cc1 [LOXO-305]
184 nM

Try this compound next: Nc1nccn2c(C34CCC(CO)(CC3)OC4)nc(-c3ccc(C(=O)Nc4ccccn4)cc3)c12 [Example 34]
56.9 nM

---

So I've got pIC50 readings for HER2 kinase (Homo sapiens), take a look.
The value called pIC50 is obtained by taking minus log10 of the concentration in mol/L.

Can you share its pIC50? I mean this molecule: Cc1cc(Nc2ncnc3ccc(NC4=NC(C)(C)CO4)cc23)ccc1Oc1ccn2ncnc2c1 [Tucatinib, reference compound]
8.52

Try this molecule next: `Nc1nccn2c(C34CCC(CO)(CC3)OC4)nc(-c3ccc(C(F)(F)c4cccc(F)c4F)cc3)c12`
8.36

Try this molecule next: `Nc1nccn2c(C34CCC(CO)(CC3)OC4)nc(-c3ccc(C(F)(F)c4ccccc4Cl)cc3)c12`
8.03

Try this molecule next: `Nc1nccn2c(C34CCC(CO)(CC3)OC4)nc(-c3ccc(C(F)(F)c4cccc(F)c4Cl)cc3)c12`
8.41

Try this molecule next: `Nc1nccn2c(C34CCC(CO)(CC3)OC4)nc(-c3ccc(C(F)(F)c4ccccc4F)cc3)c12`
8.77

Try this molecule next: `Nc1nccn2c(C34CCC(CO)(CC3)OC4)nc(-c3ccc(C(F)(F)c4cccc(Cl)c4F)cc3)c12`
8.38

---

# Assay Protocol: Blood-brain barrier permeability test, oral, SD rats
# Format: in vivo
# Applied Conditions: rat, cerebrospinal fluid/plasma, oral 10 mg/kg single dose, time point 1 h, read-out: Cerebrospinal fluid/plasma
Rule: Kp at 1 h under 0.04 gives F, otherwise T.

hey, is Kp at 1 h for this one >= 0.04? `Nc1nccn2c(C34CCC(CO)(CC3)OC4)nc(-c3ccc(C(F)(F)c4cccc(F)c4Cl)cc3)c12`
T

Try this molecule next: `Nc1nccn2c(C34CCC(CO)(CC3)OC4)nc(-c3ccc(C(F)(F)c4ccccc4F)cc3)c12`
F

Try this molecule next: Nc1nccn2c(C3CCC(CO)OC3)nc(-c3ccc(C(F)(F)c4ccccc4)cc3)c12 (single isomer, unassigned) [Example 111-P1]
F

Try this molecule next: Cc1cc(Nc2ncnc3ccc(NC4=NC(C)(C)CO4)cc23)ccc1Oc1ccn2ncnc2c1 [Tucatinib, reference compound]
F

Try this molecule next: `Nc1nccn2c(C34CCC(CO)(CC3)OC4)nc(-c3ccc(C(F)(F)c4cccc(Cl)c4F)cc3)c12`
T

Try this molecule next: `Nc1nccn2c(C34CCC(CO)(CC3)OC4)nc(-c3ccc(C(F)(F)c4ccccc4)cc3)c12`
F

Try this molecule next: `Nc1nccn2c(C34CCC(CO)(CC3)OC4)nc(-c3ccc(C(F)(F)c4ccccc4Cl)cc3)c12`
T
